pKi: −log10 of the molar value.
Reported pKi on Sodium-dependent noradrenaline transporter (Homo sapiens, UniProt P23975) for assorted compounds, compiled from publications.
Sequence (P23975 whole entry): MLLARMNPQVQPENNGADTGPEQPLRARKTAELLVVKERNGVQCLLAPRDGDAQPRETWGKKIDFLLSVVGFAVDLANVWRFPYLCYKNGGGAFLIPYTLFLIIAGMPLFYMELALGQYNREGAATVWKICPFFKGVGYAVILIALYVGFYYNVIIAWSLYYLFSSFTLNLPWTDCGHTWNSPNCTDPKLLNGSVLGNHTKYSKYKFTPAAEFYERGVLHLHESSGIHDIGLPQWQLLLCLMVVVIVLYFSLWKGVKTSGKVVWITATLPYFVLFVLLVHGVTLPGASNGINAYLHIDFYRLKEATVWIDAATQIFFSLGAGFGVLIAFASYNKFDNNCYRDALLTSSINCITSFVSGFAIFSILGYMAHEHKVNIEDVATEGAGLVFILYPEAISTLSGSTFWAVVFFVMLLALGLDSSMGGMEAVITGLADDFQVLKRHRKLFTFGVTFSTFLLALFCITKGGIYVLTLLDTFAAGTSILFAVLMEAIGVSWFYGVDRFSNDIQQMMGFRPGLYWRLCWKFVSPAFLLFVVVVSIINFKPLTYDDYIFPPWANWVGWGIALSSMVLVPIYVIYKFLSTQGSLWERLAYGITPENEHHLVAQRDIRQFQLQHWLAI

| COMPOUND | EXPERIMENTAL TARGET | pKi |
| --- | --- | --- |
| CCNc1ncc2c(n1)N(C)CCN(c1cccc(-c3nnc(C)o3)c1)C2=O | Sodium-dependent noradrenaline transporter (Homo sapiens, UniProt P23975) | < 5.00 |
| CN1CCc2ccc(OCCCN3CCC(c4noc5cc(F)ccc45)CC3)cc2C1=O | Sodium-dependent noradrenaline transporter (Homo sapiens, UniProt P23975) | < 6.00 |

Next compound, please.
Req: Quick check: pKi on Sodium-dependent noradrenaline transporter (Homo sapiens, UniProt P23975), item NCCC1CCC(c2ccco2)O1 (stereo not drawn) ?
Resp: < 5.00
